Protocol Description: Solubility of panobinostat free base in aqueous media
Type: physicochemical
Measurement Setup: aqueous buffer, thermodynamic from solid; free base, citrate buffer at pH 3.0; read-out: Soluble concentration in citrate buffer
Property: solubility

Any idea what solubility was measured for Cc1[nH]c2ccccc2c1CCNCc1ccc(/C=C/C(=O)NO)cc1 ?
≥ 10 mM

The origin of these recorded values is patent US10722597B2.
